Reported pIC50 is given for each of the following compounds.
- Test system: HiBiT-tagged MYB protein
- experiment_description: HiBiT protein abundance assay, MYB (K562 HiBiT knock-in cells)
- Assay type: cell-based, human
- conditions_used: 24 hours
- Procedure: Compounds described herein were used to screen for effects on quantitative protein abundance using a HiBit assay system (Promega). Quantitative protein abundance was determined by measuring the protein levels of HiBit-tagged protein targets expressed in cell culture via luminescence using the Nano-Glo HiBiT Lytic Detection System, which uses a split complementation assay format to reconstitute NanoBiT enzyme to generate a luminescent signal. […]
pIC50: −log10 of the molar value.

Some solved entries appear below for comparison.
# compound, pIC50
measured = [
    ("CCNC1CCN(c2ccc(C(=O)Nc3cc(F)c4nc(C)cn4c3)c3nc(OCCOC)ccc23)CC1 [Compound 233]", "> 7.00"),
    ("Cc1cn2cc(NC(=O)c3ccc(N4CCC(N(C)C)CC4)c4nccnc34)cc(F)c2n1 [Compound 158]", "6.00 to 7.00"),
    ("COc1cn2cc(NC(=O)c3ccc(N4C[C@@H](C)N[C@@H](C)C4)c4nccnc34)cc(F)c2n1 [Compound 357]", "5.00 to 6.00"),
    ("CCN1CCN(c2ccc(C(=O)Nc3cc(F)c4nc(C)cn4c3)c3nccnc23)CC12CC2 [Compound 365]", "6.00 to 7.00"),
    ("CNC1CCN(c2ccc(C(=O)Nc3cc(F)c4nc(C)cn4c3)c3nnccc23)C1 (stereo not drawn) [Compound 231]", "> 7.00"),
]

Determine from records and report pIC50 for CNC1CCN(c2ccc(C(=O)Nc3cc(F)c4nc(C)cn4c3)c3nc(OC)cnc23)C1 (stereo not drawn) [Compound 202, bis(trifluoroacetic acid)]
> 7.00

Determine from records and report pIC50 for COc1cnc2c(N3CCC(N(C)C)CC3)ccc(C(=O)Nc3cc(F)c4nc(C)cn4c3)c2n1 [Compound 206, trifluoroacetic acid]
> 7.00

From: patent US20240409536A1
